Measurement Target: Large T antigen (Simian virus 40) (UniProt P03070)
Sequence (P03070 whole entry, looked up): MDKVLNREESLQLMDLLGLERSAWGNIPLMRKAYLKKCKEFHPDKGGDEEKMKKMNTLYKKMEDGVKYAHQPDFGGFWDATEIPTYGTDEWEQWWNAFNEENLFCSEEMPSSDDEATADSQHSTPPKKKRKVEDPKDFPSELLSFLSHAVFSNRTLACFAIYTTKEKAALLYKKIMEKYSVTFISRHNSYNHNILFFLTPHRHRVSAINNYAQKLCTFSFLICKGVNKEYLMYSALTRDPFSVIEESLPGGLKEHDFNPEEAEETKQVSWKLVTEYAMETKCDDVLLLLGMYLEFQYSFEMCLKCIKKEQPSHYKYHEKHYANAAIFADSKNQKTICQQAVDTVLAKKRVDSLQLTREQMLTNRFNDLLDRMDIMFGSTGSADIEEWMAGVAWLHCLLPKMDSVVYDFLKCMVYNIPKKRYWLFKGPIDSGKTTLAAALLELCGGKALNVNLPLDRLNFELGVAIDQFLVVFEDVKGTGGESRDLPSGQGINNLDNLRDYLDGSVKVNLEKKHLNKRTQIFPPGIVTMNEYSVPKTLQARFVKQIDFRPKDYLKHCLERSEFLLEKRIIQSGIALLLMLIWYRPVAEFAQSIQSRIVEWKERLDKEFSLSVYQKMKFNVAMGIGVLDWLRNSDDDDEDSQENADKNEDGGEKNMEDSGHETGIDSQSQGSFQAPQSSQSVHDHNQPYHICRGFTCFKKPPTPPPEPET
Experimental Details: SV40 large T antigen inhibitors, biochemical (AID 1903)
Setup Conditions: SV40 large T antigen ATPase/helicase inhibition assay; at 20 µM; hits give high values
In all, about 310,000 compounds went through this assay and about 1,200 (0.39%) were called active. Only a sample is shown. Potency and affinity values are given separately.
Readout Name: inhibition (%)
Write the answer as a number in %, unit excluded.

Query :: Quick one: inhibition for COc1ccc(OC)c(C(=O)c2coc3ccc(O)c(CN(C)C)c23)c1 ?
Result :: 7.95

Query :: Report inhibition for CCN1/C(=C2/SC(=S)N(NC(C)=O)C2=O)Sc2ccccc21 please.
Result :: 0.32

Query :: Sample CCn1c(SCC(=O)Nc2nccs2)nnc1-c1ccc(S(=O)(=O)N2CCCCCC2)cc1 — what was its inhibition?
Result :: -0.295

====

Measurement Target: Large T antigen (Simian virus 40) (UniProt P03070)
Experimental Details: SV40 large T antigen inhibitors, biochemical (AID 1903)
Setup Conditions: SV40 large T antigen ATPase/helicase inhibition assay; at 20 µM; hits give high values
Hit rate of the full screen: of about 310,000 compounds, about 1,200 (0.39%) were called active. A selection follows. Results with a measured potency or affinity are listed apart.
Record form. Attribute: inhibition. Fill in for each entry.
The answer is to be given in %; state only the numeric part.

Query :: What reported inhibition corresponds to N#Cc1ccccc1-c1ccccc1C(=O)N1CCCCC1 on Large T antigen (Simian virus 40) (UniProt P03070)?
Result :: 5.76

Query :: Could you share what inhibition was measured for O=C(c1cc2ccccc2o1)n1nnc2ccccc21 , tested on Large T antigen (Simian virus 40) (UniProt P03070)?
Result :: 3.13

Query :: Given the entry CNC(=S)N/N=C/c1cn(CCOc2ccc(OC)cc2)c2ccccc12 , what inhibition was observed with Large T antigen (Simian virus 40) (UniProt P03070)?
Result :: 6.11

Query :: So what inhibition did CC1=C(C(=O)Nc2ccccc2)C(c2ccc(O)cc2)N2C(=O)CSC2=N1 (stereo not given) get with Large T antigen (Simian virus 40) (UniProt P03070)?
Result :: 3.32

Query :: Enter reported inhibition observed with Large T antigen (Simian virus 40) (UniProt P03070) for Cc1c(-c2ccc(F)cc2)[n+](=O)c(-c2ccc(F)cc2)c(C)n1[O-]
Result :: 17.5

====

Hi there, I'd appreciate the recorded inhibition for every entry that follows.
Measurement Target: Large T antigen (Simian virus 40)
Experimental Details: SV40 large T antigen inhibitors, biochemical (AID 1903)
Setup Conditions: SV40 large T antigen ATPase/helicase inhibition assay; at 20 µM; hits give high values
Among all 310,000 compounds or so, about 1,200 (0.39%) were called active. The list is a sample of the results. Entries with a potency or affinity are not part of this list.
Please state the figure in %; there is no need to write the unit.

Query :: Suppose we examine the compound CCOc1cc(/C=C2\SC(N)=NC2=O)ccc1O ; what inhibition value has been reported?
Result :: 34.2

Query :: Returns the measured inhibition for the input compound. Input: CCOC(=O)N1CCN(c2cc(=O)n(-c3ccc(OC)cc3)c(=O)[nH]2)CC1
Result :: -2.27

Query :: I would be grateful if you could share the reported inhibition for Cc1c(Cl)cccc1NC(=O)NC1CCCCC1 .
Result :: 2.26

====

Assignment: determine reported inhibition for the given molecules.
Measurement Target: Large T antigen (Simian virus 40)
Experimental Details: SV40 large T antigen inhibitors, biochemical (AID 1903)
Setup Conditions: SV40 large T antigen ATPase/helicase inhibition assay; at 20 µM; hits give high values
Screen size: about 310,000 compounds; about 1,200 (0.39%) were called active. These entries were drawn from the full list. Measured potencies and affinities stand elsewhere.

Query :: What inhibition value was documented for this molecule, COc1ccc(NC(=O)CSc2nnc(CC(=O)Nc3ccc(F)cc3)n2C)cc1 ?
Result :: 6.25% (inactive)

Query :: Name the reported inhibition value associated with the molecule Cc1cc(C)nc(SCCN(C)C)n1
Result :: 21.5% (inactive)

Query :: // returns reported inhibition for input COc1cc(-c2cc(=O)c3c(O)cc(O)cc3o2)ccc1O
Result :: 11.8% (inactive)

Query :: Request the reported inhibition associated with Cc1cc(C(=O)O)ccc1-c1ccc(/C=C2\NC(=O)N(Cc3ccc(F)cc3)C2=O)o1
Result :: 37.5% (inactive)

Query :: Which value of inhibition has been reported for O=C(O)c1ccc2c(c1)C(c1ccccc1)OC2=O (centres undefined) in the records?
Result :: 11% (inactive)

Query :: Endpoint output: inhibition of COc1ccc(/C=N/NC(=O)c2ccccc2OC)cc1COc1ccccc1[N+](=O)[O-] . Value?
Result :: 1.66% (inactive)

Query :: Tell me the measured inhibition of COC1Cc2ccccc2N(C(N)=O)c2ccccc21 (centres undefined) , please.
Result :: 11.8% (inactive)

Query :: Dear colleague, I am looking for the recorded inhibition of the following molecule: CC(C)CSc1nc2ccccc2n1CC(=O)O
Result :: 9.25% (inactive)

Query :: Need inhibition, item O=C(CCCOc1ccc(Br)cc1)NNC(=O)c1ccncc1
Result :: 26.4% (inactive)

====

So I've got a bunch of compounds here, and I need their inhibition values.
Measurement Target: Large T antigen (Simian virus 40) (UniProt P03070)
Experimental Details: SV40 large T antigen inhibitors, biochemical (AID 1903)
Setup Conditions: SV40 large T antigen ATPase/helicase inhibition assay; at 20 µM; hits give high values
Hit rate of the full screen: of about 310,000 compounds, about 1,200 (0.39%) were called active. The list is a sample of the results. Measured potencies and affinities stand elsewhere.
# output: bare number, implied unit %

Query :: Which inhibition reading was recorded for the compound COC(=O)COc1ccc2occ(C(C)=O)c2c1 ?
Result :: -0.85

Query :: Please give the measured inhibition for this compound: O=c1[nH]c(=O)c2nnc(N/N=C/c3ccccc3F)nc2[nH]1
Result :: 11.5

Query :: Bench note: what inhibition did COc1ccc2nc(NC(=O)/C=C/c3ccc4c(c3)OCO4)sc2c1 show?
Result :: 5.17

Query :: Param item = Oc1ccc(/C=N\Nc2nncc(-c3ccccc3)n2)cc1 ; retrieve measured inhibition.
Result :: 28.1

Query :: // inhibition lookup, key: C=CCn1c(SCc2cccc(OC)c2)nnc1-c1ccncc1
Result :: 5.97

Query :: Suppose we examine the compound COC(=O)c1ccc(-c2nc(O)c3cnccn23)cc1 ; what inhibition value has been reported?
Result :: 4.33

Query :: Given the compound O=c1ccc(S(=O)(=O)N2CCC(Cc3ccccc3)CC2)c[nH]1 , what is its reported inhibition?
Result :: 7.63

Query :: Given the compound CCN(CC)C(=O)Nc1ccccc1C , what is its reported inhibition?
Result :: 3.88

Query :: Could you share which inhibition value was measured for Cc1ccc(CCNC(=O)C2CCC(=O)N2Cc2ccc(F)cc2)cc1 (stereo unspecified) ?
Result :: 8.48

Query :: Given O=C(c1cccc([N+](=O)[O-])c1)c1ccc2c(c1)OCCOCCOCCOCCO2 , state its recorded inhibition.
Result :: 7.91

Query :: Item under review: O=C(NCCCO)c1ccc2[nH]c3c(c2c1)CCCC3 . Reported inhibition?
Result :: 2.41

Query :: If you can, please state the reported inhibition value of Cc1cc(NCc2ccccc2)n2ncc(-c3ccccc3)c2n1 .
Result :: 3.96

Query :: Item under review: Cc1ccc(N2CC(=O)N(NC(=O)Nc3ccc(Cl)c(Cl)c3)CC2=O)cc1 . Reported inhibition?
Result :: 13.8

Query :: Reported inhibition, compound Cc1ccc(Cn2c(=O)c3ccccc3n3c(CCC(=O)NCCN4CCOCC4)nnc23)cc1 : ____
Result :: 3.95

Query :: Data request, read-out inhibition, for CC(C(N)=O)N1c2cccc3cccc(c23)S1(=O)=O (stereo unspecified)
Result :: 5.84

Query :: Quick one: inhibition for COc1ccc(N2C(=O)CC(c3cc(OC)c(OC)c(OC)c3)CC2=O)cc1 ?
Result :: 8.69

====

Field: inhibition. Provide a value for each of the molecules that follow.
Measurement Target: Large T antigen (Simian virus 40)
Experimental Details: SV40 large T antigen inhibitors, biochemical (AID 1903)
Setup Conditions: SV40 large T antigen ATPase/helicase inhibition assay; at 20 µM; hits give high values
The campaign covered roughly 310,000 compounds. About 1,200 (0.39%) were called active. The list is a sample of the results. Potency and affinity values are given separately.
Number in %, nothing else.

Query :: Can you share its inhibition? I mean this molecule: COc1ccc(NC(=O)CCN2CCN(S(=O)(=O)c3ccc(C(C)C)cc3)CC2)cc1
Result :: 14.9

Query :: What does the record list as inhibition for COc1cccc(S(=O)(=O)Nc2ccc(C(=O)N3CCCCCC3)cc2)c1 ?
Result :: -1.76

Query :: Which value of inhibition has been reported for O=C(Nc1ccccc1)Nc1snnc1C(=O)Nc1cccc(O)c1 in the records?
Result :: 10.9

Query :: Looking for the measured inhibition of Cc1cc(SCC(=O)N/N=C/c2ccc(C(=O)O)cc2)nc2ccccc12 , can you help?
Result :: 6.65

Query :: Look up inhibition: Cc1cc(SCC(=O)N/N=C/c2ccc(O)cc2O)nc2ccccc12
Result :: 7.95
